Attribution: patent US10919943B2

System: HAB1
Experiment: Yeast two hybrid of pBD-PYR1 site saturation mutants with pACT-HAB1 on 10 μM ABA, β-galactosidase staining
Type: cell-based, Arabidopsis
Design: key: x: Mutations in PYR1 that disrupt ABA-induced binding to PYR1 to HAB1
Conditions: S. cerevisiae Y190, 10 μM ABA; dead = lack of visible staining in comparison to wild type control
ASSAY READOUT: Mutations in PYR1 that disrupt ABA-induced binding to PYR1 to HAB1

{"MOLECULE": "T156D: PYR1 mutant (protein, UniProt O49686 1-191, looked up, variant T156D) Abscisic acid receptor PYR1: MPSELTPEERSELKNSIAEFHTYQLDPGSCSSLHAQRIHAPPELVWSIVRRFDKPQTYKHFIKSCSVEQNFEMRVGCTRDVIVISGLPANTSTERLDILDDERRVTGFSIIGGEHRLTNYKSVTTVHRFEKENRIWTVVLESYVVDMPEGNSEDDDRMFADTVVKLNLQKLATVAEAMARNSGDGSGSQVT", "EXPERIMENTAL RESULT": "x"}
{"MOLECULE": "I62G: PYR1 mutant (protein, UniProt O49686 1-191, looked up, variant I62G) Abscisic acid receptor PYR1: MPSELTPEERSELKNSIAEFHTYQLDPGSCSSLHAQRIHAPPELVWSIVRRFDKPQTYKHFGKSCSVEQNFEMRVGCTRDVIVISGLPANTSTERLDILDDERRVTGFSIIGGEHRLTNYKSVTTVHRFEKENRIWTVVLESYVVDMPEGNSEDDTRMFADTVVKLNLQKLATVAEAMARNSGDGSGSQVT", "EXPERIMENTAL RESULT": "x"}
